tested.on: LATS1 (Homo sapiens, UniProt O95835)
Sequence (O95835 1-1130): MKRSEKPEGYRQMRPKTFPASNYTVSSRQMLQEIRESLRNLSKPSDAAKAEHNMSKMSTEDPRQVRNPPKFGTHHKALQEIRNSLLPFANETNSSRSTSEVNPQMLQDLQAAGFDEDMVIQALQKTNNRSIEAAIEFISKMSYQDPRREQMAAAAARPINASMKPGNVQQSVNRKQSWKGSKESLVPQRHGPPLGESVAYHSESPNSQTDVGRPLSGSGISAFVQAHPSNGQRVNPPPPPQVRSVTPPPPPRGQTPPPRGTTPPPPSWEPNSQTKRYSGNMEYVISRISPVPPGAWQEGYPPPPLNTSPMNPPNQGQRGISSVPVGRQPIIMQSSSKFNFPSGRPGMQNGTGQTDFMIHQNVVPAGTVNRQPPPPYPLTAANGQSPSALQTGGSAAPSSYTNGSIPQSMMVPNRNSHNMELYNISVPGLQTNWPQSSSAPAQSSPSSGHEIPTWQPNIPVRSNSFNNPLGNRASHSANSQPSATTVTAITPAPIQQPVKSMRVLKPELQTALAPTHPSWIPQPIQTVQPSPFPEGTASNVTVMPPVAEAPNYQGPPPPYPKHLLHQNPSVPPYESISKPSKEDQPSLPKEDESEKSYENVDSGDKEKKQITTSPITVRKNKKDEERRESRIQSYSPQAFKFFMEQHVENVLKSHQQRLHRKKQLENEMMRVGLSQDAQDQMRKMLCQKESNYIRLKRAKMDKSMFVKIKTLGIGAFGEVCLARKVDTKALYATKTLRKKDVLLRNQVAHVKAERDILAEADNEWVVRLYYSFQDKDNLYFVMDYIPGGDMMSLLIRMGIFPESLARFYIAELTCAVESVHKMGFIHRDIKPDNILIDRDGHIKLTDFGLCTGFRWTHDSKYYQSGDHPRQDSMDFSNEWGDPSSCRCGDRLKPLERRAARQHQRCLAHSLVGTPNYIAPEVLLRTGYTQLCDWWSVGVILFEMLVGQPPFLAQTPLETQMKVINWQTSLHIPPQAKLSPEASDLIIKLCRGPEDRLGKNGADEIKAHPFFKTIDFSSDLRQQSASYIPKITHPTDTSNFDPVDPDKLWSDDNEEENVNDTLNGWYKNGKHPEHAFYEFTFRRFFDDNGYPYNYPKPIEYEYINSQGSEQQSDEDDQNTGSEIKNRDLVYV
assay.method.text: RBC HotSpot kinase assay (33P-ATP, P81 filter-binding), LATS1
Format: biochemical
details: biochemical kinase inhibition; read-out: LATS1 IC50
measured.quantity: IC50 (nM)
Please state the figure in nM; there is no need to write the unit.

Examples from the recorded data:
*Q* Entry Cc1cc(-c2ccnc3[nH]cc(C#N)c23)cc(F)c1[C@@]1(O)[C@H](C)CN(C(=O)[C@H](CO)N(C)C)C[C@@H]1C [Compound 2023] , system LATS1 (Homo sapiens, UniProt O95835): what IC50 was measured?
*A* 4.4

*Q* Entry Cc1cc(-c2ccnc3[nH]cc(C#N)c23)cc(F)c1[C@@]1(O)[C@H](C)CN(C(=O)CNCC(F)(F)F)C[C@@H]1C [Compound 2014] , system LATS1 (Homo sapiens, UniProt O95835): what IC50 was measured?
*A* 7.1

*Q* Entry Cc1cc(-c2ccnc3[nH]cc(C#N)c23)ccc1[C@@]1(O)[C@H](C)CN(C(=O)[C@@H](C)N)C[C@@H]1C [Compound 2010] , system LATS1 (Homo sapiens, UniProt O95835): what IC50 was measured?
*A* 13.4

Further cases:
*Q* Entry Cc1cc(-c2ccnc3[nH]cc(C#N)c23)cc(F)c1[C@@]1(O)[C@H](C)CNC[C@@H]1C [Compound 2024] , system LATS1 (Homo sapiens, UniProt O95835): what IC50 was measured?
*A* 6.6

*Q* Entry Cc1cc(-c2ccnc3[nH]cc(C#N)c23)cc(F)c1[C@@]1(O)[C@H](C)CN(C(=O)C(N)C(F)F)C[C@@H]1C (stereo partly shown) [Compound 2019] , system LATS1 (Homo sapiens, UniProt O95835): what IC50 was measured?
*A* 7
